Values from patent US20230141783A1

- protocol details: physchem
- condition label: methyl isobutyl ketone (MIBK), 50 °C, organic solvent or mixture, thermodynamic from solid
experimental readout: solubility at 3 days (µg/mL)
Entry rule: numbers only, all in µg/mL.

For the molecule CCc1nc2ccc(Cl)cn2c1C(=O)NCc1ccc(N2CCC(c3ccc(OC(F)(F)F)cc3)CC2)cc1.Cc1ccc(S(=O)(=O)O)cc1.Cc1ccc(S(=O)(=O)O)cc1 [Form A] , give its measured solubility at 3 days value.
2000

----------
- protocol details: Solubility estimation by aliquot addition and Clarity temperature cycling
- condition label: dimethyl sulfoxide, 20 °C, organic solvent or mixture, thermodynamic from solid
experimental readout: solubility

Let me know recorded solubility for CCc1nc2ccc(Cl)cn2c1C(=O)NCc1ccc(N2CCC(c3ccc(OC(F)(F)F)cc3)CC2)cc1 [Q203 free base] , thanks.
< 25.5 mg/mL

----------
- protocol details: Solubility estimation by aliquot addition and Clarity temperature cycling
- condition label: tetrahydrofuran, 20 °C, organic solvent or mixture, thermodynamic from solid
experimental readout: solubility

Return reported solubility. Input compound: CCc1nc2ccc(Cl)cn2c1C(=O)NCc1ccc(N2CCC(c3ccc(OC(F)(F)F)cc3)CC2)cc1 [Q203 free base]
128 to 255 mg/mL

----------
- protocol details: Approximate solubility of the free base by gravimetry method
- Assay type: physicochemical
- condition label: organic solvent or mixture, thermodynamic from solid; Tetrahydrofuran (THF), RT
experimental readout: solubility at 1 day (mg/mL)
Provide only the numeric value, understood in mg/mL.

Read off the recorded solubility at 1 day for CCc1nc2ccc(Cl)cn2c1C(=O)NCc1ccc(N2CCC(c3ccc(OC(F)(F)F)cc3)CC2)cc1 [Q203 free base]
133

----------
- protocol details: Approximate solubility of the free base by gravimetry method
- Assay type: physicochemical
- condition label: organic solvent or mixture, thermodynamic from solid; Acetone, 50° C.
experimental readout: solubility at 1 day (mg/mL)
API: value field is a number in mg/mL; no unit string.

Fill in reported solubility at 1 day for this entry: CCc1nc2ccc(Cl)cn2c1C(=O)NCc1ccc(N2CCC(c3ccc(OC(F)(F)F)cc3)CC2)cc1 [Q203 free base]
48

----------
- protocol details: Approximate solubility of the free base by gravimetry method
- Format: physicochemical
- condition label: organic solvent or mixture, thermodynamic from solid; Acetone+5%water, 50° C.
experimental readout: solubility at 1 day (mg/mL)
State just the number; it will be interpreted in mg/mL.

Name the recorded solubility at 1 day of the compound listed here: CCc1nc2ccc(Cl)cn2c1C(=O)NCc1ccc(N2CCC(c3ccc(OC(F)(F)F)cc3)CC2)cc1 [Q203 free base]
74

----------
- protocol details: Solubility estimation by aliquot addition and Clarity temperature cycling
- condition label: MEK, 20 °C, organic solvent or mixture, thermodynamic from solid
experimental readout: solubility

Report solubility, nothing else, for this molecule: CCc1nc2ccc(Cl)cn2c1C(=O)NCc1ccc(N2CCC(c3ccc(OC(F)(F)F)cc3)CC2)cc1 [Q203 free base]
50 to 56 mg/mL

----------
- protocol details: Approximate solubility of the free base by gravimetry method
- Type: physicochemical
- condition label: organic solvent or mixture, thermodynamic from solid; IPA+15%water, 50° C.
experimental readout: solubility at 1 day (mg/mL)
Please state the figure in mg/mL; there is no need to write the unit.

Output measured solubility at 1 day for this item: CCc1nc2ccc(Cl)cn2c1C(=O)NCc1ccc(N2CCC(c3ccc(OC(F)(F)F)cc3)CC2)cc1 [Q203 free base]
11
